// data source = ChEMBL document CHEMBL2384965

test-protocol: Drug metabolism in rat liver microsomes at 5 uM measured over 4 hrs by LC/MS analysis in presence of NADPH
Type: ADME, Microsome
experimental-parameters: read-out: Drug metabolism
endpoint-label: metabolised at 4 h, 5 µM

[
  {
    "smiles-notation": "Cn1c(=O)c2c(-c3ccccc3)n3c(c2n(C)c1=O)[C@@H](c1ccc(Br)o1)Oc1ccc(C(=O)O)cc1-3",
    "metabolised at 4 h, 5 µM": "< 5%"
  }
]

Could you now consider this next compound?
Recorded metabolised at 4 h, 5 µM (compound Cn1c(=O)c2c(-c3ccccc3)n3c(c2n(C)c1=O)[C@H](c1ccc(Br)o1)Oc1ccc(C(=O)O)cc1-3 ): < 5%

###

test-protocol: Drug uptake in CD1 mouse kidney at 10 mg/kg, ip administered as bolus dose measured at 4 hrs by LC-MS analysis
Type: ADME, organism-based
Parameters: dose 10 mg/kg, route intraperitoneal
experimental-parameters: read-out: Drug uptake
endpoint-label: concentration at 4 h (µM)
Quick note: give the figure in µM, leave out the unit.

In plain terms, Cn1c(=O)c2c(-c3ccccc3)n3c(c2n(C)c1=O)[C@H](c1ccc(Br)o1)Oc1ccc(C(=O)O)cc1-3 has a documented concentration at 4 h of 0.6
